Binary label based on melting point with cut-off 100 °C: below gives 1 (yes), not below gives 0 (no).

For orientation, consider the following solved cases.
- compound: "CCc1ccc(C)nc1"
  cat: "1 (yes)"
- compound: "CC(=O)Nc1ccc(S(=O)(=O)Nc2ccc([N+](=O)[O-])cc2)cc1"
  cat: "0 (no)"
- compound: "O=C(O)C(=O)c1ccccc1"
  cat: "1 (yes)"

Prompt line: I wonder whether `CCOC(=O)C(O)(c1ccc(Cl)cc1)c1ccc(Cl)cc1` has melting point below 100 °C. Can you tell?
Response line: 1 (yes)

Prompt line: I wonder whether `O=S(=O)(O)c1ccc(Cl)cc1` has melting point below 100 °C. Can you tell?
Response line: 1 (yes)

Prompt line: I wonder whether `CCCCOC(=O)CC(O)(CC(=O)OCCCC)C(=O)OCCCC` has melting point below 100 °C. Can you tell?
Response line: 1 (yes)

Prompt line: I wonder whether `COc1ccc(NS(=O)(=O)c2ccc(N)cc2)nn1` has melting point below 100 °C. Can you tell?
Response line: 0 (no)

----------
Binary label based on melting point with cut-off 90 °C: below gives y, not below gives n.

For orientation, consider the following solved cases.
- compound: "O=[N+]([O-])c1ccc(Cl)c([N+](=O)[O-])c1"
  cat: "y"
- compound: "COC(N)=O"
  cat: "y"
- compound: "CC(CNC(=O)c1ccccc1)C(=O)OCC(=O)[C@@]12OC(C)(C)O[C@@H]1C[C@H]1[C@@H]3CCC4=CC(=O)C=C[C@]4(C)[C@@]3(F)[C@@H](O)C[C@@]12C (some centres not stated)"
  cat: "n"
- compound: "CC(=O)NCC1(c2ccccc2)CCN(CCCC(=O)c2ccc(F)cc2)CC1"
  cat: "n"
- compound: "OCCCl"
  cat: "y"
- compound: "COc1cc(OC)c2ccc(=O)oc2c1"
  cat: "n"

Now look at this entry.
Prompt line: I wonder whether `CC(C)OC(N)=O` has melting point below 90 °C. Can you tell?
Response line: n

----------
Entries are sorted into classes by melting point as follows: lower level: < 40 °C; middle level: ≥ 40 °C and < 80 °C; upper level: ≥ 80 °C

For orientation, consider the following solved cases.
- compound: "C1OCOCO1"
  cat: "middle level"
- compound: "CC(C)(C)c1cccc([N+](=O)[O-])c1"
  cat: "lower level"

Prompt line: Record `COc1ccc([N+](=O)[O-])cc1` — which class?
Response line: middle level

Prompt line: Record `CC(=O)Oc1cccc2ccccc12` — which class?
Response line: middle level

Prompt line: Record `O=C(O)/C=C/c1c[nH]cn1` — which class?
Response line: upper level

Prompt line: Record `SCCCCS` — which class?
Response line: lower level

Prompt line: Record `O=[N+]([O-])c1ccccc1CCO` — which class?
Response line: lower level

Prompt line: Record CCC(C)CCC(C)O (stereo unspecified) — which class?
Response line: lower level

Prompt line: Record `Cc1cc([N+](=O)[O-])ccc1O` — which class?
Response line: upper level

----------
melting point reference
Use °C as the unit, but write only the number.

- compound: "N#CCc1ccc(N)cc1"
  readout_unit: "°C"
  melting point: 46
- compound: "CCCOC(=O)C(=O)OCCC"
  readout_unit: "°C"
  melting point: -44.3
- compound: "CCCCCCCCCC(Br)C(=O)O (stereo not drawn)"
  readout_unit: "°C"
  melting point: 10
- compound: "CC/C(=C\\c1ccccc1)[N+](=O)[O-]"
  readout_unit: "°C"
  melting point: 90.5
- compound: "FC(F)=C(Cl)Cl"
  readout_unit: "°C"
  melting point: -116
- compound: "CCC(C)(C#N)/N=N/C(C)(C#N)CC (stereo not drawn)"
  readout_unit: "°C"
  melting point: 50
- compound: "NC(=O)CI"
  readout_unit: "°C"
  melting point: 94.5

Please find the next compound below.
Prompt line: State, in one line, measured melting point of `O=C(c1ccc(Br)cc1)c1ccc(Br)cc1`
Response line: 177

----------
boiling point reference
Use °C as the unit, but write only the number.

Some solved entries appear below for comparison.
- molecule: "O=c1c2ccccc2sc2ccccc12"
  boiling point (°C): 373
- molecule: "CC(=O)Oc1ccc(OC(C)=O)c(OC(C)=O)c1"
  boiling point (°C): 300
- molecule: "Cc1cc(=O)n(-c2ccccc2)n1C"
  boiling point (°C): 319
- molecule: "C1COCO1"
  boiling point (°C): 78
- molecule: "C=C=C(C)C"
  boiling point (°C): 40.8

Prompt line: State, in one line, measured boiling point of `c1ccc(C2CC2)cc1`
Response line: 174

Prompt line: State, in one line, measured boiling point of `Fc1c(F)c(F)c(-c2c(F)c(F)c(F)c(F)c2F)c(F)c1F`
Response line: 206

Prompt line: State, in one line, measured boiling point of `Oc1ccccc1Br`
Response line: 194

Prompt line: State, in one line, measured boiling point of `FC1=C(F)C(F)(F)C(F)(F)C(F)(F)C1(F)F`
Response line: 52

Prompt line: State, in one line, measured boiling point of `ClCC#CCCl`
Response line: 166

----------
melting point reference
Use °C as the unit, but write only the number.

- compound: "Brc1ccc(Br)c(Br)c1"
  quantity_kind: "melting point"
  experimental_result: 44.5

Please find the next compound below.
Prompt line: State, in one line, measured melting point of `CCCCCCCCCCCC(=O)CCCCCCCCCCC`
Response line: 70.2

----------
Binary label based on boiling point with cut-off 200 °C: below gives Y, not below gives N.

- compound: "c1ccc2c(c1)NCCN2"
  cat: "N"
- compound: "O=C(Cl)CCCl"
  cat: "Y"
- compound: "CC1CCCC(=O)C1 (configuration not stated)"
  cat: "Y"
- compound: "CCCOC(=O)C(=O)OCCC"
  cat: "N"
- compound: "COC(=O)C(F)(F)C(F)(F)C(F)(F)F"
  cat: "Y"

Prompt line: I wonder whether `Cc1cc(C)c(Br)c(C)c1Br` has boiling point below 200 °C. Can you tell?
Response line: N

Prompt line: I wonder whether `O=c1[nH]c2ccccc2o1` has boiling point below 200 °C. Can you tell?
Response line: N

Prompt line: I wonder whether `Clc1cnccn1` has boiling point below 200 °C. Can you tell?
Response line: Y

Prompt line: I wonder whether C/C=C/C(C)CC (configuration not stated) has boiling point below 200 °C. Can you tell?
Response line: Y

Prompt line: I wonder whether `Fc1c(F)c(F)c(S)c(F)c1F` has boiling point below 200 °C. Can you tell?
Response line: Y

Prompt line: I wonder whether `CCC(=O)c1cccc(OC)c1` has boiling point below 200 °C. Can you tell?
Response line: N

Prompt line: I wonder whether `CC(C)(O)CCC(C)(C)O` has boiling point below 200 °C. Can you tell?
Response line: N

Prompt line: I wonder whether `C1=CCOC1` has boiling point below 200 °C. Can you tell?
Response line: Y

Prompt line: I wonder whether `Cc1ccc(CCl)c(C)c1` has boiling point below 200 °C. Can you tell?
Response line: N

Prompt line: I wonder whether CCCCOC(=O)C(C)O (configuration not stated) has boiling point below 200 °C. Can you tell?
Response line: Y

Prompt line: I wonder whether CCC(C)C(=O)C(C)CC (configuration not stated) has boiling point below 200 °C. Can you tell?
Response line: Y

Prompt line: I wonder whether `C=CCc1cc(OC)c2c(c1)OCO2` has boiling point below 200 °C. Can you tell?
Response line: N

Prompt line: I wonder whether `CCCCCCC(=O)OCC(C)C` has boiling point below 200 °C. Can you tell?
Response line: N

Prompt line: I wonder whether `Nc1ccc(-c2ccccc2N)cc1` has boiling point below 200 °C. Can you tell?
Response line: N

Prompt line: I wonder whether `O=C(Cl)C(F)(F)C(F)(F)C(F)(F)F` has boiling point below 200 °C. Can you tell?
Response line: Y

----------
boiling point reference
Use °C as the unit, but write only the number.

- molecule: "O=C=Nc1ccc(Cl)cc1"
  readout_unit: "°C"
  boiling point: 204
- molecule: "C=CCCBr"
  readout_unit: "°C"
  boiling point: 98.5

Prompt line: State, in one line, measured boiling point of `CC[C@H](C)C(C)(C)C`
Response line: 110

Prompt line: State, in one line, measured boiling point of `C[C@@H](CN)c1ccccc1`
Response line: 210

Prompt line: State, in one line, measured boiling point of `CCC(C)=CCl`
Response line: 96.5

Prompt line: State, in one line, measured boiling point of `CCCC[Si](Cl)(Cl)Cl`
Response line: 148

----------
Entries are sorted into classes by melting point as follows: zone 1: < 50 °C; zone 2: ≥ 50 °C and < 80 °C; zone 3: ≥ 80 °C

For orientation, consider the following solved cases.
- molecule: "CC(=O)Nc1cccc(O)c1"
  cat: "zone 3"
- molecule: "COc1c(C[C@@H](O)C(C)C)c(=O)n(C)c2c(OC)cccc12"
  cat: "zone 3"
- molecule: "N#CC1(O)CCCCC1"
  cat: "zone 1"
- molecule: "CC1(C)OC(c2ccco2)CN1C(=O)C(Cl)Cl (centres undefined)"
  cat: "zone 3"
- molecule: "O=[N+]([O-])c1ccc(Nc2ccc(O)cc2)c([N+](=O)[O-])c1"
  cat: "zone 3"

Prompt line: Record `N#CCc1c[nH]c2ccccc12` — which class?
Response line: zone 1

Prompt line: Record CC(Cc1ccccc1)c1ccccc1 (centres undefined) — which class?
Response line: zone 2

Prompt line: Record `C[SiH](Cl)Cl` — which class?
Response line: zone 1

Prompt line: Record `CCCCCCCCCCCCCCCCOC(=O)CCCCCCCCCCCCCCC` — which class?
Response line: zone 2

Prompt line: Record `CCCCCCCCCCCCCC(=O)OC(=O)CCCCCCCCCCCCC` — which class?
Response line: zone 2

Prompt line: Record CC1(C)CCCCC1O (centres undefined) — which class?
Response line: zone 1

Prompt line: Record CSc1ccc2c(c1)N(CCC1CCCCN1C)c1ccccc1S2 (centres undefined) — which class?
Response line: zone 2

Prompt line: Record `CCCCCCCCCCCCCCCCCCC(=O)O` — which class?
Response line: zone 2

// data source = the OPERA property sets (Mansouri et al. 2018)
